These entries and their values trace back to PubChem BioAssay (NCI).

# Test system: HT29 colon
# ASSAY_REMARKS: NCI tumour cell line growth inhibition, 48 h
Known TGI of a selection of compounds

{"columns": ["COMPOUND", "READOUT_TYPE", "TEST_RESULT"],
 "data": [
  ["COc1cc2c(cc1OC)[C@H]1C(COC(=O)c3ccccc3)CSC(=Nc3ccccc3)N1CC2 (stereo not given in full)", "TGI", "> 100 µM"]
]}

Exercise: # input compound: `S=c1ssc(Oc2ccccc2)c1Cl` ; wanted: its TGI
Key: > 100 µM

Exercise: Entry under review: `O=C(NCCCCCCNC(=O)OCCSCCn1cc(C(=O)NC(=O)OCc2ccccc2)c(=O)[nH]c1=O)OCCSCCn1cc(C(=O)NC(=O)OCc2ccccc2)c(=O)[nH]c1=O` . Reported TGI?
Key: > 100 µM

Exercise: Field request: TGI | item: CC1(c2cccc(Cl)c2)CC(c2cccc(Cl)c2)=C(C#N)C(=C(C#N)C#N)N1 (stereo not given)
Key: 91.2 µM

Exercise: I would be grateful if you could share the reported TGI for COc1cccc(N2C(=O)/C(=C\c3ccccc3)SC2c2cc(OC)c(OC)c(OC)c2)c1 (stereo not given) .
Key: > 100 µM

---

# Tested on: CCRF-CEM leukemia
# ASSAY_REMARKS: NCI tumour cell line growth inhibition, 48 h; in the data active = GI50 below about 0.43 µM; inactive = the rest
Thanks in advance; please answer with one of these: T (active), F (inactive)

{"columns": ["COMPOUND", "TESTED_ON", "CAT"],
 "data": [
  ["O=C(c1ccccc1)C(Br)C(Br)c1cccc([N+](=O)[O-])c1 (stereo not drawn)", "CCRF-CEM leukemia", "F"],
  ["Clc1ccc2nnnn2n1", "CCRF-CEM leukemia", "F"]
]}

Exercise: Called result for `CC[C@@]1(OC(=O)CN)C(=O)OCc2c1cc1n(c2=O)Cc2cc3c(N)cccc3nc2-1`
Key: T

Exercise: // outcome(item) with item = COC(=O)C1CCCN1C(=O)[C@@H]1CCCN1C(=O)[C@H](Cc1c[nH]c2ccccc12)NC(=S)Nc1cc(C(F)(F)F)cc(C(F)(F)F)c1 (stereo partly drawn)
Key: F

Exercise: Hey, what did the test say about CCN1C(=O)N(c2ccccc2)C2NC(=S)N(/N=C/C=C/c3ccccc3)C21 (stereo not drawn) ?
Key: T

Exercise: Field: outcome | Entry: `COc1cccc2c1C(=O)c1c(O)c3c(c(O)c1C2=O)C[C@@](O)(C(=O)CO)C[C@@H]3O[C@H]1C[C@H](N)[C@@H](O)[C@H](C)O1`
Key: T

Exercise: Can you look up the reported call for `COc1cc2c(cc1OCCCCCOc1ccc(-n3c(C)nc4ccccc4c3=O)cc1)N=C[C@@H]1CCCN1C2=O` for me?
Key: T

Exercise: Please share the test call associated with `COC(=O)C1=C(C(=O)OC)SC(=C(Cl)C(=S)Nc2ccccc2O)S1` .
Key: F

Exercise: For CC(C)COCC(CN(Cc1ccccc1)c1ccccc1)N1CCCC1 (stereo not drawn) , which call appears in the assay record?
Key: F

Exercise: Would you mind telling me which call this test gave CCCCCCCCCCC(C(O)c1ccccc1)N1CCCCC1 (stereo not drawn) ?
Key: F

---

# System: HCC-2998 colon
# ASSAY_REMARKS: NCI tumour cell line growth inhibition, 48 h
READOUT_TYPE: TGI (µM)
Dear colleague, please return just the value in µM, with no unit written.

{"columns": ["COMPOUND", "TGI / µM"],
 "data": [
  ["Nc1ccc(S(=O)(=O)Nc2ccc(Nc3c4ccccc4nc4ccccc34)cc2)cc1", 8.2],
  ["COc1cc(Cl)cc(-c2nn(-c3cccc(NC(=O)Nc4cc(C(F)(F)F)cc(C(F)(F)F)c4)c3)cc2-c2ccncc2)c1", 5.42],
  ["COc1ccc(OC2OC(COC(c3ccccc3)(c3ccc(OC)cc3)c3ccc(OC)cc3)C(O)C(O)C2O)cc1 (configuration not stated)", 16.4],
  ["CC(C)c1c(O)ccc2c1CCC1C(C)(C)CCCC21C (configuration not stated)", 37.2],
  ["CCC[CH2][Sn]([CH2]CCC)([CH2]CCC)[O]C(=O)c1ccc(Cl)cc1Cl", 0.31]
]}

Exercise: Recorded TGI for Cc1ccc2c(c1)C(C)Cc1c(Cl)ncnc1N2C (configuration not stated) , please?
Key: 18.3

Exercise: Need TGI of `CCN1Cc2c(ccc(F)c2C#N)O[C@@H](C)CNC(=O)c2c(N)nn3ccc1nc23` , thanks.
Key: 20.7

Exercise: What does the record list as TGI for `CC(C)(CN1CCCCC1)C(=O)/C=C/c1ccc(Cl)cc1` ?
Key: 26.3

---

# Tested on: KM12 colon
# ASSAY_REMARKS: NCI tumour cell line growth inhibition, 48 h
READOUT_TYPE: TGI

Example entries and their recorded answers appear below.
{"columns": ["MOLECULE", "TEST_RESULT"],
 "data": [
  ["CC1(c2cccc(Cl)c2)CC(c2cccc(Cl)c2)=C(C#N)C(=C(C#N)C#N)N1 (stereo not drawn)", "39 µM"],
  ["CN1CCCOC(c2ccc([N+](=O)[O-])cc2)O1 (stereo not drawn)", "> 100 µM"],
  ["OC(c1cc(-c2ccc(Cl)cc2)nc2ccccc12)C1CCCCN1 (stereo not drawn)", "5.42 µM"],
  ["Cc1[nH]c(=O)n2c(C)nnc2c1C(=O)Nc1cc(Cl)cc(Cl)c1", "> 100 µM"]
]}

Exercise: Need TGI, item CN1C(=O)C(c2c[nH]c3ccccc23)N(C)C(=O)C1c1c[nH]c2ccccc12 (stereo not drawn)
Key: > 100 µM

Exercise: I am curious: what TGI value has been reported for `Cc1ccc(N=Nc2ccc(N)cc2C)c(S(N)(=O)=O)c1` ?
Key: > 100 µM

Exercise: Which TGI is reported for this molecule? `Cc1cc2nc(N3C(=O)/C(=C/c4ccccc4S)N=C3c3ccccc3)sc2cc1C`
Key: > 100 µM

Exercise: Which TGI is listed for `N#Cc1ccc(C(=O)/C=C/c2ccc(O)c(O)c2)cc1` ?
Key: 30.5 µM

Exercise: Value lookup for TGI; key = CN(C(=O)C1CCCCCC1=O)c1ccccc1Cl (stereo not drawn)
Key: > 100 µM

---

Listing: TGI of selected compounds
# System: BT-549 breast
# ASSAY_REMARKS: NCI tumour cell line growth inhibition, 48 h

Here is how some compounds turned out for TGI.
{"columns": ["COMPOUND", "TEST_RESULT"],
 "data": [
  ["NC1CC(Cl)c2c(Cl)sc(Cl)c21 (centres undefined)", "> 100 µM"],
  ["CC(C)(C)OC(=O)N1CCC2(C)CC(=O)CC=C12 (centres undefined)", "> 100 µM"],
  ["O=c1n(-c2ccccc2)c(=O)n2n1C1Cc3ccccc3C12 (centres undefined)", "> 100 µM"],
  ["O=P1(c2ccccc2)C(c2ccccc2)=CC=C1c1ccccc1", "> 100 µM"],
  ["COc1cc(NC(=O)CSc2nc3ccc(C)cc3c(=O)n2Cc2ccccc2)cc(OC)c1OC", "20 µM"],
  ["CC(C)(C)OC(=O)NC(CCC(=O)OCc1ccccc1)C(=O)NCCCO (centres undefined)", "> 100 µM"],
  ["CC1OC(OC2C(OC(=O)[C@@H]3CC(C)(C)C[C@@H]4C5=CC[C@@H]6[C@@]7(C)C[C@H](O)[C@H](OC8OC(CO)C(O)C(O)C8O)[C@@](C)(CO)C7[C@H](O)C[C@@]6(C)[C@]5(C)C[C@@H](O)[C@H]43)OCC(O)C2O)C(O)C(O)C1O (some centres undefined)", "> 15 µM"],
  ["C=CCc1ccccc1CC1(OCC)OC(=O)c2ccccc21 (centres undefined)", "> 100 µM"]
]}

Now, please, on to the next compound.
Exercise: Item `CN(C)CCCNc1c(C#N)[n+]([O-])c2cc(Cl)ccc2[n+]1[O-]` has what recorded TGI?
Key: 31.1 µM

---

# System: HL-60(TB) leukemia
# ASSAY_REMARKS: NCI tumour cell line growth inhibition, 48 h
READOUT_TYPE: TGI

Solved entries:
{"columns": ["COMPOUND", "TGI"],
 "data": [
  ["Cc1cc2sc(C)[n+](CCCOS(=O)(=O)[O-])c2cc1C", "> 100 µM"],
  ["COc1ccc(N2C(=O)C(C)SC2c2cc3cc(Br)ccc3nc2Cl)cc1 (stereo unspecified)", "74.7 µM"],
  ["NC(N)=N/N=C/c1c(-c2cc([N+](=O)[O-])c(Cl)cc2Cl)nc2sccn12", "4.31 µM"],
  ["CC(C)=c1sc(=C(C)C)c2c1=NC(C)(C)N=2", "> 100 µM"],
  ["O=C1C=CC2(O)OCCN(CCO)C2=C1 (stereo unspecified) (tested in a mixture with another compound)", "> 100 µM"]
]}

Now let's try a different one.
Exercise: GET /values?readout=TGI&item= O=c1n(-c2ccccc2)c(=O)n2n1C1Cc3ccccc3C12 (stereo unspecified)
Key: > 100 µM
